PROCEDURE TEXT: Oral bioavailability in Sprague-Dawley rat at 5 mg/kg by LC-MS/MS analysis
Assay type: ADME, organism-based
TEST CONTEXT: in vivo
MEASUREMENT LABEL: bioavailability (%)
API: value field is a number in %; no unit string.

Prompt line: Look at this compound and give its reported bioavailability. CCCCNC(=O)/C=C/c1ccc(COC(Cn2ccnc2)c2ccc(Cl)cc2Cl)cc1 (stereo unspecified)
Response line: 12.8

====

PROCEDURE TEXT: Volume of distribution at steady state in Sprague-Dawley rat at 2 mg/kg,iv by LC-MS/MS analysis
Type: ADME, organism-based
TEST CONTEXT: in vivo, read-out: Vdss
MEASUREMENT LABEL: Vd (L/kg)
API: value field is a number in L/kg; no unit string.

Prompt line: Look at this compound and give its reported Vd. CCCCNC(=O)/C=C/c1ccc(COC(Cn2ccnc2)c2ccc(Cl)cc2Cl)cc1 (stereo unspecified)
Response line: 1.76

====

PROCEDURE TEXT: AUC (0 to infinity) in Sprague-Dawley rat at 2 mg/kg,iv by LC-MS/MS analysis
Type: ADME, organism-based
TEST CONTEXT: in vivo
MEASUREMENT LABEL: AUC(0-inf) (ng·h/mL)
API: value field is a number in ng·h/mL; no unit string.

Prompt line: Look at this molecule and give its reported AUC(0-inf). CCCCNC(=O)/C=C/c1ccc(COC(Cn2ccnc2)c2ccc(Cl)cc2Cl)cc1 (stereo unspecified)
Response line: 1410

====

System: Candida albicans
PROCEDURE TEXT: Antifungal activity against Candida albicans CPCC400616 assessed as inhibition of fungal growth by CLSI protocol based microdilution method
Type: functional
MEASUREMENT LABEL: MIC

Prompt line: Param readout = MIC; param system = Candida albicans; param query = O=C(/C=C/c1ccc(COC(Cn2ccnc2)c2ccc(Cl)cc2Cl)cc1)Nc1ccc(Br)cc1 (stereo not drawn) ; response: value
Response line: 0.06 µg/mL

Prompt line: Consider next the compound O=C(/C=C/c1ccc(COC(Cn2ccnc2)c2ccc(Cl)cc2Cl)cc1)Nc1cccc(Br)c1 (stereo not drawn) in the same way.
Response line: 0.25 µg/mL

Prompt line: Consider next the compound O=c1ccc2ccc(COC(Cn3ccnc3)c3ccc(Cl)cc3Cl)cc2o1 (stereo not drawn) in the same way.
Response line: 0.06 µg/mL

====

Reported MIC by item:
Tested on: Candida albicans
PROCEDURE TEXT: Antifungal activity against Candida albicans CPCC400616 assessed as inhibition of fungal growth by CLSI protocol based microdilution method
Type: functional
API: value field is a number in µg/mL; no unit string.

• CC(C)NC(=O)/C=C/c1ccc(COC(Cn2ccnc2)c2ccc(Cl)cc2Cl)cc1 (centres undefined) = 0.125
• O=C(/C=C/c1ccc(COC(Cn2ccnc2)c2ccc(Cl)cc2Cl)cc1)Nc1ccc(Cl)cc1 (centres undefined) = 0.06
• O=C(/C=C/c1ccc(COC(Cn2ccnc2)c2ccc(Cl)cc2Cl)cc1)Nc1cccc(Cl)c1 (centres undefined) = 0.125
• O=C(/C=C/c1ccc(COC(Cn2ccnc2)c2ccc(Cl)cc2Cl)cc1)Nc1ccc(Cl)cc1Cl (centres undefined) = 0.06
• O=C(/C=C/c1ccc(COC(Cn2ccnc2)c2ccc(Cl)cc2Cl)cc1)Nc1ccccc1 (centres undefined) = 0.06
• Cc1ccccc1NC(=O)/C=C/c1ccc(COC(Cn2ccnc2)c2ccc(Cl)cc2Cl)cc1 (centres undefined) = 0.125

Prompt line: Look at this molecule and give its reported MIC. COc1ccc(NC(=O)/C=C/c2ccc(COC(Cn3ccnc3)c3ccc(Cl)cc3Cl)cc2)cc1 (centres undefined)
Response line: 0.03

Prompt line: Consider next the molecule CCCCNC(=O)/C=C/c1ccc(COC(Cn2ccnc2)c2ccc(Cl)cc2Cl)cc1 (centres undefined) in the same way.
Response line: 0.03

Prompt line: Consider next the molecule CNC(=O)/C=C/c1ccc(COC(Cn2ccnc2)c2ccc(Cl)cc2Cl)cc1 (centres undefined) in the same way.
Response line: 0.25
